meta.source: paper PMC3156243

- assayed_target: MTHFR (methylenetetrahydrofolate reductase) (Thermus thermophilus, UniProt Q5SLG6)
- Sequence (Q5SLG6 1-296): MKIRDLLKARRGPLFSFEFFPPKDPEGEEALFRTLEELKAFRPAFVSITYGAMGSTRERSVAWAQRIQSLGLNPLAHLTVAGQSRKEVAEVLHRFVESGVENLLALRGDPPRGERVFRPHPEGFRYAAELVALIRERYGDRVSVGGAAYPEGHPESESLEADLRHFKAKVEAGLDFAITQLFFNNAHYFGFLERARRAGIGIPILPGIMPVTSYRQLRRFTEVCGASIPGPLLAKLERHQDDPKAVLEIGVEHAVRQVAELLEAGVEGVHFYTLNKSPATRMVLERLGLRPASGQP
reported_metric: pKi
Entry type: numeric. Quantity: pKi, the -log10 of concentration in molar units.

Output pKi of CN1c2c(nc(N)[nH]c2=O)NC[C@@H]1CNc1ccc(C(=O)N[C@@H](CCC(=O)O)C(=O)O)cc1 (mixture of isomers) [(6S)-5-CH3-H4folate]
4.82
